# pIC50 per record follows
measured_on: histone deacetylase (HDAC) activity of DU-145 nuclear extract
assay_info: In vitro HDAC assay (histone deacetylase assay kit, [3H]-acetyl histone H4 peptide)
Type: biochemical
particulars: DU-145 nuclear extract; running text; read-out: HDAC inhibition IC50
Bear in mind: pIC50 is minus log10 of a mol/L concentration; give just that figure.

| structure_smiles | pIC50 |
| --- | --- |
| O=C(CCCc1ccccc1)Nc1ccc(C(=O)NO)cc1 | 7.36 |

Switching to the query record.
Query block: I'm curious: which pIC50 was measured for CC(C)(CCc1ccccc1)C(=O)Nc1ccc(C(=O)NO)cc1 tested on histone deacetylase (HDAC) activity of DU-145 nuclear extract?
Result block: 7.49

----------
measured_on: histone deacetylase (HDAC) activity of DU-145 nuclear extract
assay_info: In vitro HDAC assay (histone deacetylase assay kit, [3H]-acetyl histone H4 peptide)
Type: biochemical
particulars: parent short-chain fatty acid; read-out: HDAC inhibition IC50
recorded_metric: IC50 (µM)
Answer with a number only, understood to be in µM.

Query block: Which IC50 is reported with histone deacetylase (HDAC) activity of DU-145 nuclear extract for this entry: CCCC(CCC)C(=O)O [valproic acid, reference compound] ?
Result block: 400

----------
measured_on: histone deacetylase (HDAC) activity of DU-145 nuclear extract
assay_info: In vitro HDAC assay (histone deacetylase assay kit, [3H]-acetyl histone H4 peptide)
Assay type: biochemical
particulars: DU-145 nuclear extract; read-out: HDAC inhibition IC50
Entries and their pIC50 values follow.
pIC50 field: float, defined as -log10 of concentration (mol/L).

# annotated cases, reported pIC50 shown
| compound | pIC50 |
| --- | --- |
| Nc1ccccc1NC(=O)c1ccc(NC(=O)CCCc2ccccc2)cc1 [compound 55] | 6.40 |
| CCCC(CCC)C(=O)Nc1ccc(CCC(=O)NO)cc1 [compound 8] | 5.30 |

Query block: pIC50 lookup needed for O=C(CCCc1ccccc1)Nc1ccc(C(=O)NO)cc1 [compound 19] , thanks.
Result block: 7.36

----------
measured_on: histone deacetylase (HDAC) activity of DU-145 nuclear extract
assay_info: In vitro HDAC assay (histone deacetylase assay kit, [3H]-acetyl histone H4 peptide)
Format: biochemical
particulars: Table 1, representative phenylbutyrate-based HDAC inhibitors; read-out: IC50
recorded_metric: pIC50
Answer as the number alone; pIC50 is minus log10 of concentration in mol/L.

| structure_smiles | pIC50 |
| --- | --- |
| O=C(CCCc1ccccc1)Nc1ccc(C(=O)NO)cc1 | 7.36 |

Let us examine a further case.
Query block: For the molecule shown here, CC[C@@H](C(=O)Nc1ccc(C(=O)NO)cc1)c1ccccc1 , give the reported pIC50.
Result block: 7.42
